Exercise: state measured IC50 for each of the molecules provided.
biological target: interaction between VCAM-1 and VLA-4 (Homo sapiens, UniProt P05556+P13612); construct: supplied in their natural form as surface molecules on human U937 cells; The partner hVCAM-1(1-3)-IgG was made in house in transfected COS cells (ATCC CRL1651) and used as culture supernatant; assay: U937/VCAM-1 cell adhesion test (adhesion of U937 cells to hVCAM-1 (1-3)-IgG); settings: inhibition of adhesion of human U937 cells (ATCC CRL 1593) to hVCAM-1 (1-3)-IgG
Sequence (P13612 34-1032): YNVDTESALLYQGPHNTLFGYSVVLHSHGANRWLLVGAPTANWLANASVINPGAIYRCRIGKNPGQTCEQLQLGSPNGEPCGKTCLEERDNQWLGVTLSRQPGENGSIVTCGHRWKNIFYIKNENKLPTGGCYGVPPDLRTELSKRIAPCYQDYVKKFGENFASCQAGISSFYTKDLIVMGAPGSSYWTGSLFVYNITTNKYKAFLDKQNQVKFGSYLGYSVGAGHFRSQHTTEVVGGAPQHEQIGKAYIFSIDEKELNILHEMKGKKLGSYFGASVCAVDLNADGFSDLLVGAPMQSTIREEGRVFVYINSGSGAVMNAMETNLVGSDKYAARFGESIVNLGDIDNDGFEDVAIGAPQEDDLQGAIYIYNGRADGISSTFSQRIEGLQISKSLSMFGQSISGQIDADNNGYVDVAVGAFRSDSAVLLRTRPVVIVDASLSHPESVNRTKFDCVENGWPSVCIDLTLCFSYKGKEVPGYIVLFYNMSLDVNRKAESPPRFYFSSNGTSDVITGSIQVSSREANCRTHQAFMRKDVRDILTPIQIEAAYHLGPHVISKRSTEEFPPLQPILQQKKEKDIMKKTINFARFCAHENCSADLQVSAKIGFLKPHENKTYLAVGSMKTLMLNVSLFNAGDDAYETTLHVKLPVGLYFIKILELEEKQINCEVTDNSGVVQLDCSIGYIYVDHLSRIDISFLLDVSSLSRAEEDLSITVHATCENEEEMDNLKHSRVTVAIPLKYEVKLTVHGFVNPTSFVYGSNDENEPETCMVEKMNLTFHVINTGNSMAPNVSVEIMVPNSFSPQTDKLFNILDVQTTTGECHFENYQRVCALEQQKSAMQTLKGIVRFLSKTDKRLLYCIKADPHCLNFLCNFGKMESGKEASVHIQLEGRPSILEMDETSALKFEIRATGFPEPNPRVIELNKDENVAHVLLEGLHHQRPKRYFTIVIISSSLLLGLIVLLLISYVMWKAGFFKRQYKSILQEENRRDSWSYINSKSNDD
Sequence (P05556 21-798): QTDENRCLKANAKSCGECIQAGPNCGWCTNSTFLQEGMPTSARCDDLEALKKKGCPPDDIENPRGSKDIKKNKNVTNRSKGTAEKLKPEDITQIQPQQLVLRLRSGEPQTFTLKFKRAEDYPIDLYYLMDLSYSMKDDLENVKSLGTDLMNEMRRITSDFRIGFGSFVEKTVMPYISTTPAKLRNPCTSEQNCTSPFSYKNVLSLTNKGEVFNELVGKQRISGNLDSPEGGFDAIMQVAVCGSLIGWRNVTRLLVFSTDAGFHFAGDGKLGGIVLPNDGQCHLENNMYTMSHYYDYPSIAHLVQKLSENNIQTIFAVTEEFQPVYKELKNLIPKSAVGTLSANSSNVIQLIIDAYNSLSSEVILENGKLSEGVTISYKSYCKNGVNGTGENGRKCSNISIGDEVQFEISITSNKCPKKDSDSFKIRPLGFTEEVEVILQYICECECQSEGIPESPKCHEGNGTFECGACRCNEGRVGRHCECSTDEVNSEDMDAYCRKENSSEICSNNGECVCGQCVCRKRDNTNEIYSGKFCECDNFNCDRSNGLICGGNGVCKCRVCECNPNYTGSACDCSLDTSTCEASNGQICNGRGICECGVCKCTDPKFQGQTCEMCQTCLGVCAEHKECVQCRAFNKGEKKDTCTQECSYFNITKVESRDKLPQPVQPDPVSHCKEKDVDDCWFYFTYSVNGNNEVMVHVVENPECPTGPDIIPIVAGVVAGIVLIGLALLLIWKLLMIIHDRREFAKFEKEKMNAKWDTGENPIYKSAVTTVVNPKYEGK
Structures can show the parent of a compound that is named as a salt.
Numbers only, in µM.

Hi team, please reply with IC50 for each item in this list.
1. COc1cc(CN2C(=O)N([C@H](CN[C@@H](CC(=O)O)c3ccc4c(c3)OCO4)CC3CC3)C(=O)C2(C)C)ccc1NC(=O)Nc1ccccc1C [Example 17, hydrochloride]
2. COc1cc(CN2C(=O)N([C@H](CN[C@@H](CC(=O)O)c3ccc(OC)c(OC)c3)CC3CC3)C(=O)C2(C)C)ccc1NC(=O)Nc1ccccc1C [Example 14, hydrochloride]
3. COc1cc(CN2C(=O)N([C@H](CN[C@@H](CC(=O)O)c3ccccc3)CC3CC3)C(=O)C2(C)C)ccc1NC(=O)Nc1ccccc1C [Example 6, hydrochloride]

(A)
1: 0.0244; 2: 0.0082; 3: 0.0662
